target: Phospholipase A2 (Homo sapiens, UniProt P04054); experiment: In vitro inhibition of human recombinant secretory Phospholipase A2 (group I).
Sequence (P04054 whole entry): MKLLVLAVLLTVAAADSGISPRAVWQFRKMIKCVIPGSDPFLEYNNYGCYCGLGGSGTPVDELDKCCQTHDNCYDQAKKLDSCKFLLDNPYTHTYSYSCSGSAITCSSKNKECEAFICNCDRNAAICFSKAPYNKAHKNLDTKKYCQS
endpoint: IC50 (µM)

1: COc1c(C)c(OC(=O)c2c(C)c(C)c(OC(=O)CCC(=O)Oc3c(C)c(C)c(C(=O)Oc4c(C)c(C)c(C(=O)O)c(OC)c4C)c(OC)c3C)c(C)c2OC)c(C)c(C)c1C(=O)O
2: COc1ccc([S+]([O-])c2ccc(OC)c(C(=O)Oc3c(C)c(C)c(C(=O)Oc4c(C)c(C)c(C(=O)O)c(OC)c4C)c(OC)c3C)c2)cc1C(=O)Oc1c(C)c(C)c(C(=O)Oc2c(C)c(C)c(C(=O)O)c(OC)c2C)c(OC)c1C
Inquiry: Larger number for IC50: 1 , or 2 ? # reply format: chosen label
Reply text: 1
(1: 60 µM, 2: 11 µM)
